# Subject of test: BaF3_HER2WT cells (Homo sapiens, UniProt P04626)
# Sequence (P04626 whole entry, change not shown): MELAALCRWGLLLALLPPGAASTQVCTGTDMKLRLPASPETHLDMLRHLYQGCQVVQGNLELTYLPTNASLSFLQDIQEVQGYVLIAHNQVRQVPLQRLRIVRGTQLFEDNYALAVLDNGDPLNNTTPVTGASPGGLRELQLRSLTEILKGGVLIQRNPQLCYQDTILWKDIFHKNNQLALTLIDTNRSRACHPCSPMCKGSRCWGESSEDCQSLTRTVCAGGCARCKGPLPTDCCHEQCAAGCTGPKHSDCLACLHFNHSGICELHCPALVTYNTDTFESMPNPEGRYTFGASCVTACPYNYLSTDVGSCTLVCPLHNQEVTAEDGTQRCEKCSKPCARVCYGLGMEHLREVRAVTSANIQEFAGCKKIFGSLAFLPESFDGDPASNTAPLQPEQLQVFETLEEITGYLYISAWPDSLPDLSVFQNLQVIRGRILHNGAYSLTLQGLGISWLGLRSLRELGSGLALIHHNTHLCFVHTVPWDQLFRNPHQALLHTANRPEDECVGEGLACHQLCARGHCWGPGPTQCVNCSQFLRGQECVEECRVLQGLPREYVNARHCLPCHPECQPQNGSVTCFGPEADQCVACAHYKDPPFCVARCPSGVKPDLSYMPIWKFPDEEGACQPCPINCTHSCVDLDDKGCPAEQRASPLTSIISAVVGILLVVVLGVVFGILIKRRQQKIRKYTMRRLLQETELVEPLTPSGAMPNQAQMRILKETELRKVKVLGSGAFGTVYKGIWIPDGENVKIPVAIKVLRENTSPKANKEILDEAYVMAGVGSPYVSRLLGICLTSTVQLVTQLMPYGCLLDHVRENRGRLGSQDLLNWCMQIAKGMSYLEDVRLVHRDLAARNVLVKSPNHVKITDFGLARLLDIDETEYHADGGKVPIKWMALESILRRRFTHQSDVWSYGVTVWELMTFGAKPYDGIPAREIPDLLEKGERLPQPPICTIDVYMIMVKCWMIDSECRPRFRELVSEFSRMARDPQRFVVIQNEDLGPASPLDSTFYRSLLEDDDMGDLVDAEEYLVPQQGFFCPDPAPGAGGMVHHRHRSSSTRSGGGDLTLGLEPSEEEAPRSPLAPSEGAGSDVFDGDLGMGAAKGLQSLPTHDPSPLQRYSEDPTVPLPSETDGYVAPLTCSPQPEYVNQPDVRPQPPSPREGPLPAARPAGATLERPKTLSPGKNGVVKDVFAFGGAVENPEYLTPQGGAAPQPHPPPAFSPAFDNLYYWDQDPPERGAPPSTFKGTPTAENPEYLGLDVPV
# Run description: Cell growth inhibition assay (CellTiterGlo), BaF3_HER2WT
# Format: cell-based
# Condition description: cell growth inhibition, 3 days treatment, read-out: HER2 WT IC50
Listed below: GI50 values for each entry.

Known results for compounds:
Cc1cc(Nc2ncnn3ccc(C4CCCN(C(=O)C(F)Cl)CC4)c23)ccc1Oc1ccn2ncnc2c1 (single isomer, unassigned) [Examples 145, 146, 147 and 148, second eluting isomer]
< 200 nM
Cc1cc(Nc2ncnn3ccc(C4CCN(C(=O)[C@H](F)Cl)CC4)c23)ccc1Oc1ccn2ncnc2c1 (single isomer, unassigned) [Examples 173 and 174, first eluting isomer]
200 to 500 nM
C=CC(=O)N1C2CCC1CC(c1ccn3ncnc(Nc4ccc(Oc5ccn6ncnc6c5)c(C)c4)c13)C2 (single isomer, unassigned) [Examples 124 and 125, first eluting isomer]
< 200 nM
C=C(CN(C)C)C(=O)N1CCCC(c2ccn3ncnc(Nc4ccc(Oc5ccn6ncnc6c5)c(C)c4)c23)CC1 (single isomer, unassigned) [Examples 143 and 144, second eluting isomer]
< 200 nM
Cc1cc(Nc2ncnn3ccc(C4CCN(C(=O)/C=C/CN(C)C)C4)c23)ccc1Oc1ccn2ncnc2c1 (single isomer, unassigned) [Examples 99 and 100, first eluting isomer]
< 200 nM
Cc1cc(Nc2ncnn3ccc(C4CCN(C(=O)/C=C/CN(C)C)C4)c23)ccc1Oc1ccn2ncnc2c1 (single isomer, unassigned) [Examples 99 and 100, second eluting isomer]
< 200 nM
C=C(CN(C)C)C(=O)N1CC2CCC1CC2c1ccn2ncnc(Nc3ccc(Oc4ccn5ncnc5c4)c(C)c3)c12 (single isomer, unassigned) [Examples 135 and 136, second eluting isomer]
< 200 nM
Cc1cc(Nc2ncnn3ccc(C4CCCN(C(=O)/C=C/CN(C)C)C4)c23)ccc1Oc1ccn2ncnc2c1 (single isomer, unassigned) [Examples 107 and 108, first eluting isomer]
< 200 nM

The reported BaF3_HER2WT cells (Homo sapiens, UniProt P04626) GI50 of C=CC(=O)N1CC2CCC1CC2c1ccn2ncnc(Nc3ccc(Oc4ccn5ncnc5c4)c(C)c3)c12 (single isomer, unassigned) [Examples 139 and 140, second eluting isomer] is 500 to 1500 nM

Summary: Cc1cc(Nc2ncnn3ccc([C@@H]4CCCN(C(=O)[C@H](F)Cl)CC4)c23)ccc1Oc1ccn2ncnc2c1 (single isomer, unassigned) [Examples 145, 146, 147 and 148, fourth eluting isomer] , BaF3_HER2WT cells (Homo sapiens, UniProt P04626), GI50 = 200 to 500 nM

---

# Subject of test: BaF3_HER2YVMA cells (Homo sapiens, UniProt P04626, DUP772-775, cells depend on it)
# Sequence (P04626 with tags, fused parts or gaps DUP772-775): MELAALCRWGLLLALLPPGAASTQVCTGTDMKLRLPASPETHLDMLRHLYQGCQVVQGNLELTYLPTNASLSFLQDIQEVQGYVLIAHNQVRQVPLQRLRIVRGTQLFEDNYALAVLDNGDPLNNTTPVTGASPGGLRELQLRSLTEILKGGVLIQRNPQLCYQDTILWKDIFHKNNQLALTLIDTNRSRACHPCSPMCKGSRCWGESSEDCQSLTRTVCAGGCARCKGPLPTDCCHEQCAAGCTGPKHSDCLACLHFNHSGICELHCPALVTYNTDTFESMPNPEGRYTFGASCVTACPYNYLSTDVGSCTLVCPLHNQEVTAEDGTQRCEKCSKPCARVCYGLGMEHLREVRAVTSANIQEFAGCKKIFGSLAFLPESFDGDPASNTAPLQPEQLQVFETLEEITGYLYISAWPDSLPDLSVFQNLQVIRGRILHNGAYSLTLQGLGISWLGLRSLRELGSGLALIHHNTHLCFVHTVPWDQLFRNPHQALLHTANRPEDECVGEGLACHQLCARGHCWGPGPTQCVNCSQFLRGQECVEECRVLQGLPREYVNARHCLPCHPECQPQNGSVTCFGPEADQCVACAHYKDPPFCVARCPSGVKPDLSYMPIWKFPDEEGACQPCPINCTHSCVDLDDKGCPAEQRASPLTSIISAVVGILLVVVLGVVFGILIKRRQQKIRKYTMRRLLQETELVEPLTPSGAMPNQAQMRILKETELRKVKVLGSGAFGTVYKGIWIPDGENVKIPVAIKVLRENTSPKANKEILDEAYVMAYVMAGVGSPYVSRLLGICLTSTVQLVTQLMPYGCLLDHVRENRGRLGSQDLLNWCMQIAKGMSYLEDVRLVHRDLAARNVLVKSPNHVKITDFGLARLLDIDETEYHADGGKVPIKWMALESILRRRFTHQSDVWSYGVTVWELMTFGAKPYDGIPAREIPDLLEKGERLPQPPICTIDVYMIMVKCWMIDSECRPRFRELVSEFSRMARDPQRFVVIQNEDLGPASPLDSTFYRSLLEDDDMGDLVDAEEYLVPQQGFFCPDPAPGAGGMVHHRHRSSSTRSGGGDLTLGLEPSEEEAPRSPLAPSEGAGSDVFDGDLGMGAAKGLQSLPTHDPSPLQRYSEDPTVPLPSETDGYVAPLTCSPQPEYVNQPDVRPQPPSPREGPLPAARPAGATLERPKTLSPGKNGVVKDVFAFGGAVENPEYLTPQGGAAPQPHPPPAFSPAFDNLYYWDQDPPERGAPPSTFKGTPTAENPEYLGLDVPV
# Run description: Cell growth inhibition assay (CellTiterGlo), BaF3_HER2YVMA
# Format: cell-based
# Condition description: cell growth inhibition, 3 days treatment, read-out: HER2 - YVMA IC50
Parameter measured: GI50

Form: compound = C=CC(=O)N1CC2CCC1CC2c1ccn2ncnc(Nc3ccc(Oc4ccn5ncnc5c4)c(C)c3)c12 (single isomer, unassigned) [Examples 139 and 140, first eluting isomer] ; GI50 = < 200 nM

For C=CC(=O)N1CCCC(c2ccn3ncnc(Nc4ccc(Oc5ccn6ncnc6c5)c(C)c4)c23)CC1 (single isomer, unassigned) [Examples 111 and 112, first eluting isomer] the compound record lists GI50 as < 200 nM

Value of measured GI50 for the entry C=CC(=O)N1C2CCC1CC(c1ccn3ncnc(Nc4ccc(Oc5ccn6ncnc6c5)c(C)c4)c13)C2 (single isomer, unassigned) [Examples 124 and 125, first eluting isomer] : < 200 nM

GI50 reported for this compound Cc1cc(Nc2ncnn3ccc(C4CCCN(C(=O)C(F)Cl)CC4)c23)ccc1Oc1ccn2ncnc2c1 (single isomer, unassigned) [Examples 145, 146, 147 and 148, first eluting isomer] : 200 to 500 nM

Entry under test: C=C(CN(C)C)C(=O)N1C2CCC1CC(c1ccn3ncnc(Nc4ccc(Oc5ccn6ncnc6c5)c(C)c4)c13)C2 (single isomer, unassigned) [Examples 126 and 127, first eluting isomer] . Its GI50 was 200 to 500 nM

response.value for Cc1cc(Nc2ncnn3ccc(C4CCCN(C(=O)/C=C/CN(C)C)C4)c23)ccc1Oc1ccn2ncnc2c1 (single isomer, unassigned) [Examples 107 and 108, first eluting isomer] (field: GI50) = 500 to 1500 nM

Recorded GI50 (compound C=CC(=O)N1CC2CCC1CC2c1ccn2ncnc(Nc3ccc(Oc4ccn5ncnc5c4)c(C)c3)c12 (single isomer, unassigned) [Examples 139 and 140, second eluting isomer] ): 1500 to 5000 nM

Reported GI50 of Cc1cc(Nc2ncnn3ccc(C4CC5CCC(C4)N5C(=O)/C=C/CN(C)C)c23)ccc1Oc1ccn2ncnc2c1 (single isomer, unassigned) [Examples 122 and 123, second eluting isomer] : 200 to 500 nM

Noted for Cc1cc(Nc2ncnn3ccc(C4CCCN(C(=O)C(F)Cl)CC4)c23)ccc1Oc1ccn2ncnc2c1 (single isomer, unassigned) [Examples 145, 146, 147 and 148, third eluting isomer] : its GI50 reads 500 to 1500 nM

GI50 in this record for Cc1cc(Nc2ncnn3ccc(C4CCN(C(=O)[C@@H](F)Cl)CC4)c23)ccc1Oc1ccn2ncnc2c1 (single isomer, unassigned; second eluting) [Examples 173 and 174, second eluting isomer] : < 200 nM

GI50 recorded for this compound, Cc1cc(Nc2ncnn3ccc(C4CC5CCC4CN5C(=O)/C=C/CN(C)C)c23)ccc1Oc1ccn2ncnc2c1 (single isomer, unassigned; first eluting) [Examples 137 and 138, first eluting isomer] , is 200 to 500 nM

C=C(CN(C)C)C(=O)N1CCCC(c2ccn3ncnc(Nc4ccc(Oc5ccn6ncnc6c5)c(C)c4)c23)CC1 (single isomer, unassigned) [Examples 143 and 144, first eluting isomer] yielded GI50 of 500 to 1500 nM

---

Listed here are compounds together with their documented GI50.
# Subject of test: BaF3_EGFRWT cells (Homo sapiens, UniProt P00533)
# Sequence (P00533 whole entry, change not shown): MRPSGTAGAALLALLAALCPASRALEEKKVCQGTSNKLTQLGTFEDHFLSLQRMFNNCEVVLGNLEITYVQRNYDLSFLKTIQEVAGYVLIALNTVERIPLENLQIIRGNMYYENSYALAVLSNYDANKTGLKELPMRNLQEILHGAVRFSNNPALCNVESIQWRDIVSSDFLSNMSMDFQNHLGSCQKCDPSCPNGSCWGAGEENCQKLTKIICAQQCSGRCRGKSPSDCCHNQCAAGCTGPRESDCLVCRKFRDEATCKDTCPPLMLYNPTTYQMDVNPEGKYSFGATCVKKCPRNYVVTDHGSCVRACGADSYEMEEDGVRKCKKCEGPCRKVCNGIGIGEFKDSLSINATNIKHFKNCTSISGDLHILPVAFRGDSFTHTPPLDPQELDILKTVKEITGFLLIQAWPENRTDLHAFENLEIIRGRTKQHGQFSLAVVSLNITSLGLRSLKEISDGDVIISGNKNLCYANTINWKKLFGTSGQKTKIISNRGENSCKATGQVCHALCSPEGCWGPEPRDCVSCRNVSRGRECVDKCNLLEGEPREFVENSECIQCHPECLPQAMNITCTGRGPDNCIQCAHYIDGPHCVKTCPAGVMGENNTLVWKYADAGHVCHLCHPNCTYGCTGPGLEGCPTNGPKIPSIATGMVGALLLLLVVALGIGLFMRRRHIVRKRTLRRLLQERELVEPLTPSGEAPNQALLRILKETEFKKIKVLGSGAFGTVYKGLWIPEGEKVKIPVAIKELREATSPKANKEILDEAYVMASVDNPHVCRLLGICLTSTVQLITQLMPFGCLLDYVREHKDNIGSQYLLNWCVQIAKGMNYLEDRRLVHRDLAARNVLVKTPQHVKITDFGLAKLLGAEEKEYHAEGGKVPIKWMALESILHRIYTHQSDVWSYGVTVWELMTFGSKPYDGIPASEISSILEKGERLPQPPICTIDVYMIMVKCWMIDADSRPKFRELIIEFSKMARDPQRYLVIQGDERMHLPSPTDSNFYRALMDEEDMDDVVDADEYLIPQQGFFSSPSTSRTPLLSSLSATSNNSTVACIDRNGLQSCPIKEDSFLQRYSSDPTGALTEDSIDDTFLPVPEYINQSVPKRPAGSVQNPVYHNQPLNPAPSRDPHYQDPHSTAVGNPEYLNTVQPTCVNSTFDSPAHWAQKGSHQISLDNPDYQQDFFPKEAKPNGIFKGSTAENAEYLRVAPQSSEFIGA
# Run description: Cell growth inhibition assay (CellTiterGlo), BaF3_EGFRWT
# Format: cell-based
# Condition description: 3-day treatment, CellTiterGlo, read-out: Cell growth inhibition activity, EGFR WT

Answered examples (3):
Cc1cc(Nc2ncnn3ccc(N4CCN(C(=O)/C=C/CN(C)C)CC4=O)c23)ccc1Oc1ccn2ncnc2c1 [Example 54]
1.5 to 5 µM
C=CC(=O)N1CC(c2ccn3ncnc(Nc4ccc(Oc5ccn6ncnc6c5)c(C)c4)c23)C1 [Example 3]
0.5 to 1.5 µM
Cc1cc(Nc2ncnn3ccc(C4CCN(C(=O)/C=C/CN5CCN(C)CC5)CC4)c23)ccc1Oc1ccn2ncnc2c1 [Example 24]
1.5 to 5 µM

Here is the next item to consider.
Record Cc1cc(Nc2ncnn3ccc(N4CC5(CCN(C(=O)/C=C/CN(C)C)C5)C4)c23)ccc1Oc1ccn2ncnc2c1 [Example 156] , field GI50: 1.5 to 5 µM

---

# Subject of test: BaF3_HER2YVMA cells (Homo sapiens, UniProt P04626, DUP772-775, cells depend on it)
# Run description: Cell growth inhibition assay (CellTiterGlo), BaF3_HER2YVMA
# Format: cell-based
# Condition description: cell growth inhibition, 3 days treatment, read-out: HER2 - YVMA IC50
Parameter measured: GI50

Cc1cc(Nc2ncnn3ccc(C4CCN(C(=O)[C@H](F)Cl)CC4)c23)ccc1Oc1ccn2ncnc2c1 (single isomer, unassigned) [Examples 173 and 174, first eluting isomer]
1500 to 5000 nM
C=C(CN(C)C)C(=O)N1CC2CCC1CC2c1ccn2ncnc(Nc3ccc(Oc4ccn5ncnc5c4)c(C)c3)c12 (single isomer, unassigned) [Examples 135 and 136, second eluting isomer]
200 to 500 nM
Cc1cc(Nc2ncnn3ccc([C@@H]4CCCN(C(=O)[C@H](F)Cl)CC4)c23)ccc1Oc1ccn2ncnc2c1 (single isomer, unassigned) [Examples 145, 146, 147 and 148, fourth eluting isomer]
500 to 1500 nM

Consider the record given below.
For record Cc1cc(Nc2ncnn3ccc(C4CCCN(C(=O)C(F)Cl)CC4)c23)ccc1Oc1ccn2ncnc2c1 (single isomer, unassigned) [Examples 145, 146, 147 and 148, second eluting isomer] the listed GI50 is < 200 nM

---

# Subject of test: BaF3_HER2YVMA cells (Homo sapiens, UniProt P04626, DUP772-775, cells depend on it)
# Run description: Cell growth inhibition assay (CellTiterGlo), BaF3_HER2YVMA
# Format: cell-based
# Condition description: 3-day treatment, CellTiterGlo, read-out: Cell growth inhibition activity, HER2 - YVMA
Parameter measured: GI50

Cc1cc(Nc2ncnn3ccc(C4CN(C(=O)/C=C/CN(C)C)C4)c23)ccc1Oc1ccc2c(c1)ncn2C
< 200 nM
Cc1cc(Nc2ncnn3ccc(C4CN(C(=O)/C=C\C56CCCN5CCC6)C4)c23)ccc1Oc1ccn2ncnc2c1
< 200 nM
C=CC(=O)N1CC(N(C)c2ccn3ncnc(Nc4ccc(Oc5ccn6ncnc6c5)c(C)c4)c23)C1
1500 to 5000 nM
Cc1cc(Nc2ncnn3ccc(C4CCN(C(=O)C#CCN(C)C)CC4)c23)ccc1Oc1ccn2ncnc2c1
< 200 nM

Lab book: GI50 of Cc1cc(Nc2ncnn3ccc(C4CCN(C(=O)/C=C/CN5CCN(C)CC5)CC4)c23)ccc1Oc1ccn2ncnc2c1 noted as 500 to 1500 nM

GI50 for Cc1cc(Nc2ncnn3ccc(C4(O)CN(C(=O)/C=C/CN(C)C)C4)c23)ccc1Oc1ccn2ncnc2c1 is < 200 nM

Consider Cc1cc(Nc2ncnn3ccc(N4CCN(C(=O)C(F)Cl)CC(F)(F)C4)c23)ccc1Oc1ccn2ncnc2c1 (stereo not shown) . Its measured GI50 is 500 to 1500 nM
